Data provenance: patent US8969312B2

- ASSAY SYSTEM: human liver microsomal cytochrome P450 2E1 (CYP2E1) (Homo sapiens, UniProt P05181);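 further: chlorzoxazone added as substrate, 6-hydroxychlorzoxazone formation quantified by LC/MS/MS after 30 min at 37 °C with NADP+ regenerating system, compared against solvent control without test sample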

{"COMPOUND": "CCCCCCCCCCCCCCCCCC(=O)OCC(O)CO (stereo not shown) [Glycerrin monostearate]", "inhibition / %": 5.8}

###

- ASSAY SYSTEM: cytochrome P450 2E1 (CYP2E1) (Homo sapiens, UniProt P05181)
- Sequence (P05181 whole entry): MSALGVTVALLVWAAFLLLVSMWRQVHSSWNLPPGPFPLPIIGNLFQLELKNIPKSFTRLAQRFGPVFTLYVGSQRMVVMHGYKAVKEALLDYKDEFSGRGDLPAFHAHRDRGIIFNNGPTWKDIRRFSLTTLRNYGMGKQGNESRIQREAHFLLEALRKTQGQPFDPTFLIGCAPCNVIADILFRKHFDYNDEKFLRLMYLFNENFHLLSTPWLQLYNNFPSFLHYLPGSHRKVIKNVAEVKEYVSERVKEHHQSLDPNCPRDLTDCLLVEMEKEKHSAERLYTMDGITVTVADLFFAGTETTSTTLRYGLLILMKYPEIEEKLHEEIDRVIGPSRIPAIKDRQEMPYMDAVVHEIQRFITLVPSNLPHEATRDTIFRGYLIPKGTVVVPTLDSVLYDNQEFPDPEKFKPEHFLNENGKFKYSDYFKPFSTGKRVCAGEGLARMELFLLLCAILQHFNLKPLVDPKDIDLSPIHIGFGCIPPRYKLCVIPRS
- EXPERIMENT DESCRIPTION: CYP2E1 High Throughput Inhibitor Screening Kit, cDNA synthesized microsomal CYP2E1 (MFC to HFC)
- TEST PARAMETERS: 16.5 μM
Below, each entry is listed with its recorded Inhibition of CYP 2E1.

{"COMPOUND": "Oc1cc(O)c2c(c1)O[C@H](c1ccc(O)c(O)c1)[C@H](O)C2 [(−)-Epicatechin]", "ASSAY SYSTEM": "cytochrome P450 2E1 (CYP2E1) (Homo sapiens, UniProt P05181)", "Inhibition of CYP 2E1 [%]": 18.27}
{"COMPOUND": "Oc1cc(O)c2c(c1)O[C@H](c1ccc(O)c(O)c1)[C@@H](O)C2 [(+)-Catechin]", "ASSAY SYSTEM": "cytochrome P450 2E1 (CYP2E1) (Homo sapiens, UniProt P05181)", "Inhibition of CYP 2E1 [%]": 41.53}
{"COMPOUND": "O=c1cc(-c2ccccc2)oc2ccc3ccccc3c12 [β-naphthoflavone]", "ASSAY SYSTEM": "cytochrome P450 2E1 (CYP2E1) (Homo sapiens, UniProt P05181)", "Inhibition of CYP 2E1 [%]": 6.52}
{"COMPOUND": "COc1c(O)cc2oc(Oc3ccc(O)cc3)cc(=O)c2c1O [Capillarisin]", "ASSAY SYSTEM": "cytochrome P450 2E1 (CYP2E1) (Homo sapiens, UniProt P05181)", "Inhibition of CYP 2E1 [%]": 49.05}
